Values compiled from patent US20210038607A1.

Biological target: Human HDAC7 (Homo sapiens, UniProt Q8WUI4)
Construct: (a.a. 518-end) with N-terminal GST tag; GST (N); host or cells: baculovirus expression system
Sequence (Q8WUI4 518-952 limits assumed): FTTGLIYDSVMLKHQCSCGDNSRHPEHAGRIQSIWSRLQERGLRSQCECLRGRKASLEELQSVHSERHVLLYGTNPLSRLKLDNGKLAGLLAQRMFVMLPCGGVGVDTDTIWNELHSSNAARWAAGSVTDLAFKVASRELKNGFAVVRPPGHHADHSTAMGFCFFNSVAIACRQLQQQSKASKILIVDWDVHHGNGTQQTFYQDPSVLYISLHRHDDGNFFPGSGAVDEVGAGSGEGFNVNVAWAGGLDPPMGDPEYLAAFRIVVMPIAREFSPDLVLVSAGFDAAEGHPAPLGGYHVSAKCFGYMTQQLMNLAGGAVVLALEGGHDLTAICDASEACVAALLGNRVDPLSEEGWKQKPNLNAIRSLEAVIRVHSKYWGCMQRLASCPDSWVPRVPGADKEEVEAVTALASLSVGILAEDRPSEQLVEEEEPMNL
Assay: HDAC7 biochemical assay, class IIa-specific substrate
Conditions: read-out: HDAC Isoform IC50 (nM) 7
Recorded IC50 by entry

COc1ncc(N(Cc2ccc(-c3noc(C(F)(F)F)n3)s2)c2cnccn2)nc1OC [Example BW] | ≤ 10000 nM
Cc1cnc(N(Cc2ccc(-c3noc(C(F)(F)F)n3)s2)c2cnccn2)c(C)n1 [Example BV] | ≤ 1000 nM
FC(F)(F)c1nc(-c2ccc(CN(c3cnccn3)c3ccc4nccnc4n3)s2)no1 [Example Z] | ≤ 1000 nM
FC(F)(F)c1cnnc(N(Cc2ccc(-c3noc(C(F)(F)F)n3)s2)c2cc(C(F)(F)F)cnn2)c1 [Example EU] | ≤ 10000 nM
Cc1cncnc1N(Cc1ccc(-c2noc(C(F)(F)F)n2)s1)c1cnccn1 [Example CO] | ≤ 1000 nM

Let's switch to this compound now.
Req: Bench note: what IC50 did FC(F)(F)c1nc(-c2ccc(CN(c3cncnc3)c3cnccn3)s2)no1 [Example CR] show?
Resp: ≤ 500 nM
